Test system: Human papillomavirus type 1a protein E7 (residues 44-93)
assay_notes: small molecules binding HPV E7 44-93 – biochemical, small-molecule microarray, residues 44-93, 635 nm fluorescence, primary screen (AID 1108);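 also: E7 fragment applied at 1 µg/mL in TBST for 1 h at 4 C; score combines spot fluorescence with its signal to noise ratio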
cond: fluorescence 635 nm, higher = more signal
Would you kindly list composite z-score for each of these compounds?

Task: Need composite z-score, item CCOC(=O)C[C@H]1[C@H](OC(=O)c2ccc(C(=O)c3ccccc3)cc2)[C@@H](NC(=O)CC(C)C)c2cc(OCCCO)ccc2N1C(=O)c1ccccc1
Output: 1.3

Task: Need composite z-score, item C=C(COC)C(=O)CC[C@@H](OC(C)=O)c1cccc(OCCO)c1
Output: -0.297

Task: Need composite z-score, item CC1=C2[C@@H](CCc3ccccc3)OB(O)C[C@@H]2[C@@H]2C(=O)N(C)C(=O)[C@@H]2C1
Output: 0.135

Task: Need composite z-score, item CCCCCN1CC=CC23O[C@@H]4C=CCCOC(=O)C4[C@H]2C(=O)N(CCCCCCO)[C@@H]3C1=O (stereo partly drawn)
Output: 0.521

Task: Need composite z-score, item COC(=O)[C@@]1(Cc2ccc(OC)cc2)[C@H]2c3cc(C(=O)N4CCCC4)n(CCc4c[nH]c5ccc(OC)cc45)c3C[C@H]2CN1C(=O)c1ccccc1
Output: 0.113

Task: Need composite z-score, item [N-]=[N+]=NCc1ccccc1C[C@@]1(C(N)=O)N=C(c2ccc(OCCCO)cc2)O[C@@H]1c1ccccc1
Output: 1.43

Task: Need composite z-score, item O=C1O[C@H](c2ccccc2)[C@H](c2ccccc2)N2[C@H]1[C@@H](C(=O)O)[C@]1(C(=O)Nc3ccc(C#CCCO)cc31)[C@H]2c1ccccc1OCCO
Output: 1.24

Task: Need composite z-score, item CC(C)c1ccc(NN2C(C(O)c3ccc(F)cc3)C=CC3C(=O)N(c4ccccc4)C(=O)C32)cc1 (stereo not drawn)
Output: 1.44
